tested on: Escherichia coli TOP10; experiment: shrunken log2 fold change of peptide-encoding DNA abundance (4.5 h post-induction vs induction); higher = less antimicrobial activity (less host growth inhibition); details: time post-induction: 4.5 h; library: site-saturation at positions 5, 18, 19, 20
Below: a set of entries, each annotated with reported shrunken log2 fold change.
Measured metric: shrunken log2 fold change

INSERT INTO measurements (construct_sequence, measured_metric, reported_measurement) VALUES
  ('RRIRIRPPRLPRPRPRPDDMPRP', 'shrunken log2 fold change', -0.0552),
  ('RRIRFRPPRLPRPRPRPSDFPRP', 'shrunken log2 fold change', -0.487),
  ('RRIRERPPRLPRPRPRPFRYPRP', 'shrunken log2 fold change', -0.268),
  ('RRIRERPPRLPRPRPRPVQSPRP', 'shrunken log2 fold change', -0.015),
  ('RRIRHRPPRLPRPRPRPTMQPRP', 'shrunken log2 fold change', -0.0838),
  ('RRIRGRPPRLPRPRPRPFWMPRP', 'shrunken log2 fold change', 0.103),
  ('RRIRARPPRLPRPRPRPRNWPRP', 'shrunken log2 fold change', 0.388),
  ('RRIRPRPPRLPRPRPRPAECPRP', 'shrunken log2 fold change', -0.223),
  ('RRIRARPPRLPRPRPRPDMCPRP', 'shrunken log2 fold change', -0.335),
  ('RRIRTRPPRLPRPRPRPDIWPRP', 'shrunken log2 fold change', -0.392),
  ('RRIRCRPPRLPRPRPRPRDVPRP', 'shrunken log2 fold change', 0.227),
  ('RRIRHRPPRLPRPRPRPIAEPRP', 'shrunken log2 fold change', -0.103),
  ('RRIRRRPPRLPRPRPRPTMDPRP', 'shrunken log2 fold change', 0.147),
  ('RRIRVRPPRLPRPRPRPDACPRP', 'shrunken log2 fold change', -0.11),
  ('RRIRCRPPRLPRPRPRPWCYPRP', 'shrunken log2 fold change', -0.831),
  ('RRIRTRPPRLPRPRPRPTTNPRP', 'shrunken log2 fold change', -0.19),
  ('RRIRPRPPRLPRPRPRPDWPPRP', 'shrunken log2 fold change', 0.524),
  ('RRIRWRPPRLPRPRPRPFIFPRP', 'shrunken log2 fold change', -0.0639),
  ('RRIRQRPPRLPRPRPRPGFTPRP', 'shrunken log2 fold change', -0.11),
  ('RRIRHRPPRLPRPRPRPRENPRP', 'shrunken log2 fold change', 0.0589),
  ('RRIRQRPPRLPRPRPRPVFAPRP', 'shrunken log2 fold change', 0.164),
  ('RRIRKRPPRLPRPRPRPRRRPRP', 'shrunken log2 fold change', 1.27),
  ('RRIRHRPPRLPRPRPRPCWYPRP', 'shrunken log2 fold change', -0.0677),
  ('RRIRHRPPRLPRPRPRPTWHPRP', 'shrunken log2 fold change', -0.073),
  ('RRIRLRPPRLPRPRPRPEYKPRP', 'shrunken log2 fold change', -0.438),
  ('RRIRHRPPRLPRPRPRPAMYPRP', 'shrunken log2 fold change', -0.0134),
  ('RRIRGRPPRLPRPRPRPKADPRP', 'shrunken log2 fold change', 1.29),
  ('RRIRTRPPRLPRPRPRPAGKPRP', 'shrunken log2 fold change', 0.196),
  ('RRIRPRPPRLPRPRPRPVIWPRP', 'shrunken log2 fold change', -0.0495),
  ('RRIRIRPPRLPRPRPRPTRYPRP', 'shrunken log2 fold change', -0.328),
  ('RRIRCRPPRLPRPRPRPCGHPRP', 'shrunken log2 fold change', -0.101),
  ('RRIRKRPPRLPRPRPRPHMSPRP', 'shrunken log2 fold change', 0.0205),
  ('RRIRWRPPRLPRPRPRPCPVPRP', 'shrunken log2 fold change', -0.249),
  ('RRIRARPPRLPRPRPRPHDSPRP', 'shrunken log2 fold change', 0.037),
  ('RRIRPRPPRLPRPRPRPWLFPRP', 'shrunken log2 fold change', -0.0483);

====

Below: a set of entries, each annotated with reported shrunken log2 fold change.
test system: Escherichia coli TOP10; assay: shrunken log2 fold change of peptide-encoding DNA abundance (4.5 h post-induction vs induction); higher = less antimicrobial activity (less host growth inhibition); details: time post-induction: 4.5 h; library: site-saturation at positions 5, 18, 19, 20
Measured metric: shrunken log2 fold change

INSERT INTO measurements (construct_sequence, measured_metric, reported_measurement) VALUES
  ('RRIRCRPPRLPRPRPRPLPGPRP', 'shrunken log2 fold change', 0.262),
  ('RRIRRRPPRLPRPRPRPCVWPRP', 'shrunken log2 fold change', 0.999),
  ('RRIRCRPPRLPRPRPRPFTQPRP', 'shrunken log2 fold change', -0.559),
  ('RRIRHRPPRLPRPRPRPRDLPRP', 'shrunken log2 fold change', -0.0495),
  ('RRIRNRPPRLPRPRPRPYVSPRP', 'shrunken log2 fold change', -0.0285),
  ('RRIRDRPPRLPRPRPRPSRWPRP', 'shrunken log2 fold change', 0.0623),
  ('RRIRRRPPRLPRPRPRPSARPRP', 'shrunken log2 fold change', 0.349),
  ('RRIRARPPRLPRPRPRPLINPRP', 'shrunken log2 fold change', 0.0648),
  ('RRIRQRPPRLPRPRPRPEGDPRP', 'shrunken log2 fold change', 0.00223),
  ('RRIRCRPPRLPRPRPRPIRTPRP', 'shrunken log2 fold change', -0.673),
  ('RRIRARPPRLPRPRPRPMSTPRP', 'shrunken log2 fold change', -0.0262),
  ('RRIRERPPRLPRPRPRPQHDPRP', 'shrunken log2 fold change', -0.265),
  ('RRIRSRPPRLPRPRPRPSYSPRP', 'shrunken log2 fold change', 0.232),
  ('RRIRKRPPRLPRPRPRPGIPPRP', 'shrunken log2 fold change', -0.0948),
  ('RRIRPRPPRLPRPRPRPTSQPRP', 'shrunken log2 fold change', 0.0453);

====

system: Escherichia coli TOP10; experiment: shrunken log2 fold change of peptide-encoding DNA abundance (4.5 h post-induction vs induction); higher = less antimicrobial activity (less host growth inhibition); details: time post-induction: 4.5 h; library: site-saturation at positions 5, 18, 19, 20
Measured metric: shrunken log2 fold change

INSERT INTO measurements (construct_sequence, measured_metric, reported_measurement) VALUES
  ('RRIRLRPPRLPRPRPRPFWTPRP', 'shrunken log2 fold change', 0.0168),
  ('RRIRPRPPRLPRPRPRPESCPRP', 'shrunken log2 fold change', 0.239),
  ('RRIRLRPPRLPRPRPRPNCGPRP', 'shrunken log2 fold change', -0.0908),
  ('RRIRRRPPRLPRPRPRPSCNPRP', 'shrunken log2 fold change', -0.112),
  ('RRIRIRPPRLPRPRPRPYPFPRP', 'shrunken log2 fold change', -0.38),
  ('RRIRTRPPRLPRPRPRPSSWPRP', 'shrunken log2 fold change', 0.131),
  ('RRIRMRPPRLPRPRPRPEDRPRP', 'shrunken log2 fold change', -0.0526),
  ('RRIRTRPPRLPRPRPRPYTEPRP', 'shrunken log2 fold change', -0.267),
  ('RRIRGRPPRLPRPRPRPEMNPRP', 'shrunken log2 fold change', 0.999),
  ('RRIRKRPPRLPRPRPRPPIMPRP', 'shrunken log2 fold change', -0.0359),
  ('RRIRERPPRLPRPRPRPDAWPRP', 'shrunken log2 fold change', 0.0128),
  ('RRIRDRPPRLPRPRPRPSQTPRP', 'shrunken log2 fold change', -0.244),
  ('RRIRIRPPRLPRPRPRPPESPRP', 'shrunken log2 fold change', 0.185),
  ('RRIRERPPRLPRPRPRPWRHPRP', 'shrunken log2 fold change', -0.0998),
  ('RRIRDRPPRLPRPRPRPPNQPRP', 'shrunken log2 fold change', 0.317),
  ('RRIRTRPPRLPRPRPRPTVVPRP', 'shrunken log2 fold change', 0.0732),
  ('RRIRFRPPRLPRPRPRPCCSPRP', 'shrunken log2 fold change', -0.139),
  ('RRIRTRPPRLPRPRPRPYGCPRP', 'shrunken log2 fold change', -0.00664),
  ('RRIRIRPPRLPRPRPRPEELPRP', 'shrunken log2 fold change', -0.0241),
  ('RRIRVRPPRLPRPRPRPASAPRP', 'shrunken log2 fold change', 0.309),
  ('RRIRLRPPRLPRPRPRPKWIPRP', 'shrunken log2 fold change', 0.137);

====

Below: a set of entries, each annotated with reported shrunken log2 fold change.
tested on: Escherichia coli TOP10; test: shrunken log2 fold change of peptide-encoding DNA abundance (4.5 h post-induction vs induction); higher = less antimicrobial activity (less host growth inhibition); details: time post-induction: 4.5 h; library: site-saturation at positions 5, 18, 19, 20;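 also: peptides expressed intracellularly from a pBAD plasmid library in pooled LB shake-flask culture, induced with 0.3% L-arabinose, DNA abundance read by NGS, three biological replicates, DESeq2 with apeglm shrinkage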
Measured metric: shrunken log2 fold change

INSERT INTO assay_data (construct_sequence, measured_metric, reported_measurement) VALUES
  ('RRIRFRPPRLPRPRPRPTHCPRP', 'shrunken log2 fold change', -0.0892),
  ('RRIRARPPRLPRPRPRPNGQPRP', 'shrunken log2 fold change', 0.208),
  ('RRIRKRPPRLPRPRPRPHENPRP', 'shrunken log2 fold change', -0.00978),
  ('RRIRIRPPRLPRPRPRPWISPRP', 'shrunken log2 fold change', -0.0286),
  ('RRIRLRPPRLPRPRPRPADWPRP', 'shrunken log2 fold change', 0.196),
  ('RRIRPRPPRLPRPRPRPYAIPRP', 'shrunken log2 fold change', -0.219),
  ('RRIRWRPPRLPRPRPRPNAAPRP', 'shrunken log2 fold change', 0.81),
  ('RRIRSRPPRLPRPRPRPYMQPRP', 'shrunken log2 fold change', -0.145),
  ('RRIRMRPPRLPRPRPRPAPRPRP', 'shrunken log2 fold change', 1.72),
  ('RRIRMRPPRLPRPRPRPTNNPRP', 'shrunken log2 fold change', -0.0518),
  ('RRIRFRPPRLPRPRPRPDGDPRP', 'shrunken log2 fold change', 0.0613),
  ('RRIRRRPPRLPRPRPRPEQRPRP', 'shrunken log2 fold change', 0.272),
  ('RRIRYRPPRLPRPRPRPVMMPRP', 'shrunken log2 fold change', -0.891),
  ('RRIRSRPPRLPRPRPRPANAPRP', 'shrunken log2 fold change', 0.438),
  ('RRIRSRPPRLPRPRPRPRIHPRP', 'shrunken log2 fold change', -0.323),
  ('RRIRPRPPRLPRPRPRPKQYPRP', 'shrunken log2 fold change', -0.29),
  ('RRIRVRPPRLPRPRPRPHAAPRP', 'shrunken log2 fold change', 0.156),
  ('RRIRERPPRLPRPRPRPDMCPRP', 'shrunken log2 fold change', 0.00902),
  ('RRIRFRPPRLPRPRPRPRRFPRP', 'shrunken log2 fold change', 0.0577),
  ('RRIRVRPPRLPRPRPRPDVRPRP', 'shrunken log2 fold change', -0.106),
  ('RRIRFRPPRLPRPRPRPKAGPRP', 'shrunken log2 fold change', 0.307),
  ('RRIRSRPPRLPRPRPRPLMFPRP', 'shrunken log2 fold change', -0.321),
  ('RRIRGRPPRLPRPRPRPQDEPRP', 'shrunken log2 fold change', 0.111),
  ('RRIRVRPPRLPRPRPRPPENPRP', 'shrunken log2 fold change', -0.0386),
  ('RRIRERPPRLPRPRPRPSQVPRP', 'shrunken log2 fold change', -0.0606),
  ('RRIRQRPPRLPRPRPRPHHFPRP', 'shrunken log2 fold change', -0.0176),
  ('RRIRERPPRLPRPRPRPMPRPRP', 'shrunken log2 fold change', 0.0247),
  ('RRIRSRPPRLPRPRPRPYELPRP', 'shrunken log2 fold change', 0.093),
  ('RRIRPRPPRLPRPRPRPASKPRP', 'shrunken log2 fold change', 0.022),
  ('RRIRNRPPRLPRPRPRPPEIPRP', 'shrunken log2 fold change', -0.169),
  ('RRIRHRPPRLPRPRPRPASEPRP', 'shrunken log2 fold change', -0.131),
  ('RRIRSRPPRLPRPRPRPQTCPRP', 'shrunken log2 fold change', -0.0978),
  ('RRIRPRPPRLPRPRPRPYNQPRP', 'shrunken log2 fold change', -0.429);
